# Lookup of reported IC50 keyed by entry
assayed target: KRAS WT (Homo sapiens (Human), UniProt P01116+P62937)
Sequence (P01116-2 other isoform, or with tags, fused parts or gaps): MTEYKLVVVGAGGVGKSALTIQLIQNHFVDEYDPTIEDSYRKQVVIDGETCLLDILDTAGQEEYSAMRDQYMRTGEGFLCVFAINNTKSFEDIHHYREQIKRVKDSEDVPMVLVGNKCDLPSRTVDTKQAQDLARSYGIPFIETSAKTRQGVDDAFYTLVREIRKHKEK
Sequence (P62937 whole entry): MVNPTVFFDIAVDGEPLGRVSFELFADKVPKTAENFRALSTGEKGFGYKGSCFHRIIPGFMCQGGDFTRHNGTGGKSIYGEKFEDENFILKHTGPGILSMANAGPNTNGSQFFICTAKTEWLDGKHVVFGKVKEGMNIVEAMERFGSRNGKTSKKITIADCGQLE
measurement protocol: Ras-Raf (BRAF RBD) disruption / FRET / MOA assay, KRAS WT
Type: biochemical
measurement parameters: read-out: IC50* KRAS WT FRET data
attribute measured: IC50

molecule	attribute measured	value reported
CCn1c(-c2cccnc2)c2c3cc(ccc31)-c1cc(O)cc(c1)C[C@H](NC(=O)[C@H](C(C)C)N(C)C(=O)[C@H]1CCN(C(=O)C#CCN(C)C)C1)C(=O)N1CCC[C@H](N1)C(=O)OCC(C)(C)C2	IC50	> 10000 nM
C=CC(=O)N1CC[C@]2(C1)CN(C(=O)N(C)[C@H](C(=O)N[C@H]1Cc3nc(cs3)-c3ccc4c(c3)c(c(-c3cccnc3[C@H](C)OC)n4CC)CC(C)(C)COC(=O)[C@@H]3CCCN(N3)C1=O)C(C)C)CCO2 (atropisomer, axis not shown)	IC50	100 to 1000 nM
